- STUDY SYSTEM: T1, cyno FcRn/b2M (cyno, UniProt Q8SPV9 24-297; Q8SPW0 21-119, biotinylated)
- T1 construct: bought recombinant biotinylated protein (Immunitrack ITF05 or ACRO FCM-C82W5); also called cFcRn; cFcRn/cb2M
- T1 sequence (Q8SPV9 24-297 limits assumed, chain 1 of 2): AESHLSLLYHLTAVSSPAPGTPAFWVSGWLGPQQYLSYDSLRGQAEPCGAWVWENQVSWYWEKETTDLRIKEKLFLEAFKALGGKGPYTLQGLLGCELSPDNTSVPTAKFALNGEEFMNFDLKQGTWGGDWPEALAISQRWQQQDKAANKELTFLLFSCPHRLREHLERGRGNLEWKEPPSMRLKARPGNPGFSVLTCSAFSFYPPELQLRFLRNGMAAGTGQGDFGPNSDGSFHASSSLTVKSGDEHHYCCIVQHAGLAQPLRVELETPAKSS
- T1 sequence (Q8SPW0 21-119 limits assumed, chain 2 of 2): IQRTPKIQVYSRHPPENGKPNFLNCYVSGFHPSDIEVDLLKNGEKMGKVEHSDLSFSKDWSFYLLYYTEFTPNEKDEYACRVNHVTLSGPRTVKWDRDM
- PROTOCOL NOTES: SPR pH 6.0;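 note: surface plasmon resonance kinetics at 25 °C, diluted periplasmic extracts injected over immobilized ligand surfaces, 120 s association then 600–3600 s dissociation, running buffer containing 150 mM NaCl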
MEASURED PROPERTY: koff

Worked cases, answers included:
BINDER | koff
T0263018B11 S31N (VHH, name in Kabat numbering, FLAG3-His6 tagged) VHH: EVQLVESGGGVVQPGGSLRLSCAASGFTFSNYAMYWVRQAPGKGLEWVSAISSGGGSTDYADSVKGRFTISRDNSKNTLYLQMNSLRPEDTALYYCAADTLYTSLTWYSYWGQGTLVTVSS | 0.0018 s⁻¹
T0263018B11 S52aA (VHH, name in Kabat numbering, FLAG3-His6 tagged) VHH: EVQLVESGGGVVQPGGSLRLSCAASGFTFSSYAMYWVRQAPGKGLEWVSAISAGGGSTDYADSVKGRFTISRDNSKNTLYLQMNSLRPEDTALYYCAADTLYTSLTWYSYWGQGTLVTVSS | 0.00043 s⁻¹
T0263018B11 S100Q (VHH, name in Kabat numbering, FLAG3-His6 tagged) VHH: EVQLVESGGGVVQPGGSLRLSCAASGFTFSSYAMYWVRQAPGKGLEWVSAISSGGGSTDYADSVKGRFTISRDNSKNTLYLQMNSLRPEDTALYYCAADTLYTQLTWYSYWGQGTLVTVSS | 0.00084 s⁻¹

Specify measured koff for T0263018B11 S30N (VHH, name in Kabat numbering, FLAG3-His6 tagged) VHH: EVQLVESGGGVVQPGGSLRLSCAASGFTFNSYAMYWVRQAPGKGLEWVSAISSGGGSTDYADSVKGRFTISRDNSKNTLYLQMNSLRPEDTALYYCAADTLYTSLTWYSYWGQGTLVTVSS .
0.0013 s⁻¹
